Target: human MT2 receptors (Homo sapiens, UniProt P49286)
Construct: expressed in transfected cells; host or cells: CHO (Chinese hamster ovary) cells, stably transfected
Sequence (P49286 whole entry): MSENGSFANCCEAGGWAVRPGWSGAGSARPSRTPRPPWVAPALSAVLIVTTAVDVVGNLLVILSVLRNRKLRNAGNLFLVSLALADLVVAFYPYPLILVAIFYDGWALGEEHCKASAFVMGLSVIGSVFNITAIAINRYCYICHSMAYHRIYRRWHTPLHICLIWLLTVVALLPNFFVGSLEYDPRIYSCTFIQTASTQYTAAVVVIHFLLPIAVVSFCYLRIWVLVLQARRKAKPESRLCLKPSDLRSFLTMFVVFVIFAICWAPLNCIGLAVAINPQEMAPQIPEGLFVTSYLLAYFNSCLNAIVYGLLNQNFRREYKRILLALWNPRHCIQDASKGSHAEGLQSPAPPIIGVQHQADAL
Experiment: Intrinsic activity at human MT2 receptors stably transfected in CHO cells
Assay type: biochemical
Details: MT2, melatonin = 1.00
Result type: MT2 Intrinsic Activity

Observe how each entry below is paired with its result.
{"columns": ["Compound", "MT2 Intrinsic Activity"],
 "data": [
  ["COc1ccc2c(c1)C(C)(CCNC(C)=O)CN2C (stereo not drawn) [8e]", 0.96],
  ["COc1ccc2c(c1)C(C)(CCNC(C)=O)CN2Cc1ccccc1 (stereo not drawn) [8f]", 0.61]
]}

[a] COc1ccc2c(c1)C(CCNC(C)=O)CN2Cc1ccccc1 (stereo not drawn) [8h]
[b] CC(=O)NCCC1(C)CN(Cc2ccccc2)c2ccccc21 (stereo not drawn) [8b]
Which value of MT2 Intrinsic Activity is greater, the one for a or the one for b ? Your choice should be expressed through its label.
a

---

Target: human MT1 receptors (Homo sapiens, UniProt P48039)
Construct: expressed in transfected cells; host or cells: CHO (Chinese hamster ovary) cells, stably transfected
Sequence (P48039 whole entry): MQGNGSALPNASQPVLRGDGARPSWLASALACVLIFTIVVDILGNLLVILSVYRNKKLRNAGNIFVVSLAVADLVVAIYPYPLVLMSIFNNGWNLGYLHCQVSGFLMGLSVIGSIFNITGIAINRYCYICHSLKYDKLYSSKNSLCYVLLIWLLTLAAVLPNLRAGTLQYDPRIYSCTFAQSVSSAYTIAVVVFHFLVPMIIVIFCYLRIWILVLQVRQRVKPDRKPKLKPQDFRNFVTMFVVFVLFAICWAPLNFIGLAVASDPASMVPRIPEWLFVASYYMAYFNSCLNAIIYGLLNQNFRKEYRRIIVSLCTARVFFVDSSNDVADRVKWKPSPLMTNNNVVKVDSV
Test: Intrinsic activity at human MT1 receptors stably transfected in CHO cells
Type: biochemical
Details: MT1, melatonin = 1.00
Result type: MT1 Intrinsic Activity

[I] CC(=O)NCCC1CN(C)c2c1ccc(C)c2C (stereo not shown) [8l]
[II] COc1ccc2c(c1)C(C)(CCNC(C)=O)CN2C (stereo not shown) [8e]
# min-compare on MT1 Intrinsic Activity between I and II Your choice should be expressed through its label.
I

[a] COc1ccc2c(c1)C(C)(CCNC(C)=O)CN2Cc1ccccc1 (stereo not shown) [8f]
[b] COc1ccc2[nH]cc(CCNC(C)=O)c2c1 [Melatonin, 3-(2-(acetylamino)ethyl)-5-methoxyindole, reference compound]
[c] CC(=O)NCCC1(C)CN(Cc2ccccc2)c2ccccc21 (stereo not shown) [8b]
List items by MT1 Intrinsic Activity in falling order. Put the labels in the requested order and write them down.
b, a, c
(b: 1.00, a: 0.63, c: 0.33)

[a] COc1ccc2c(c1)C(CCNC(C)=O)CN2Cc1ccccc1 (stereo not shown) [8h]
[b] CC(=O)NCCC1(C)CN(C)c2ccccc21 (stereo not shown) [8a]
# min-compare on MT1 Intrinsic Activity between a and b Your choice should be expressed through its label.
b
